Entries and their SAGPY
# Test system: Sagittaria pygmaea, L.
# experiment.description: Preemergence weed control under flooded paddy conditions, SAGPY (Arrowhead (Pygmaea))
# Format: in vivo
# measurement.setup: 0.1250 kg/ha; preemergence weeds, flooded paddy; herbicidal effect rating 0-9, three to four weeks after treatment
Just the number, please, no unit after it.

Worked set:
{"smiles.string": "Cc1ccc(OCC(=O)N(C)S(C)(=O)=O)c(-c2nsc3ccc(-n4c(=O)cc(C(F)(F)F)n(C)c4=O)cc23)c1", "assay.result": 4.0}
{"smiles.string": "COc1ccc(C)cc1-c1nsc2cc(Cl)c(-n3c(=O)cc(C(F)(F)F)n(C)c3=O)cc12", "assay.result": 2.0}
{"smiles.string": "Cn1c(C(F)(F)F)cc(=O)n(-c2ccc3snc(C(=O)OCCCO)c3c2)c1=O", "assay.result": 9.0}
{"smiles.string": "CCOCN(C(=O)c1nsc2ccc(-n3c(=O)cc(C(F)(F)F)n(C)c3=O)cc12)S(=O)(=O)Cc1ccccc1", "assay.result": 7.0}
{"smiles.string": "CN(C)/N=C/c1nsc2ccc(-n3c(=O)cc(C(F)(F)F)n(C)c3=O)cc12", "assay.result": 7.0}

Sure, the documented SAGPY for C#CCOC(=O)COc1cc2c(cc1-c1nsc3ccc(-n4c(=O)cc(C(F)(F)F)n(C)c4=O)cc13)CCC2 is 2.0

Measured SAGPY of CN(Cc1ccc(Cl)cc1)S(=O)(=O)NC(=O)c1nsc2ccc(-n3c(=O)cc(C(F)(F)F)n(C)c3=O)cc12 : 2.0

Data origin, for the record: patent EP0908457B1
